These measurements were taken from paper PMC9070039.

Let's look at some compounds and their measured melting point.

Q: Quick check: melting point of N#CC1=C(N)Oc2[nH]c(=S)[nH]c(=O)c2C12c1ccccc1-c1c2n[nH]c(=O)c1C#N (centres unmarked) ?
Result: 305 to 307 °C

Q: Quick check: melting point of N#CC1=C(N)Oc2[nH]c(=O)[nH]c(=O)c2C12c1ccccc1-c1c2n[nH]c(=O)c1C#N (centres unmarked) ?
Result: 322 to 324 °C

Q: Quick check: melting point of N#CC1=C(N)Oc2c(c(=O)oc3ccccc23)C12c1ccccc1-c1c2n[nH]c(=O)c1C#N (centres unmarked) ?
Result: 308 to 310 °C

Q: Quick check: melting point of N#CC1=C(N)OC2=C(C(=O)c3ccccc32)C12c1ccccc1-c1c2n[nH]c(=O)c1C#N (centres unmarked) ?
Result: 298 to 300 °C

Q: Quick check: melting point of CC1(C)CC(=O)C2=C(C1)OC(N)=C(C#N)C21c2ccccc2-c2c1n[nH]c(=O)c2C#N (centres unmarked) ?
Result: 315 to 318 °C
